# ASSAY REMARKS: Clearance in cynomolgus monkey at 1 mg/kg, iv
# Format: ADME, organism-based, Macaca fascicularis
# MEASUREMENT CONDITIONS: in vivo
READOUT NAME: clearance (mL/min/kg)
Numbers only, in mL/min/kg.

Please report the recorded clearance for [2H]C([2H])([2H])n1ncc2c1-c1ccnc(c1)[C@@H](c1coc(-c3cc(Cl)ccc3-n3cc(Cl)nn3)cc1=O)CCC[C@@H](C)C(=O)N2 .
8.6

---

# ASSAY REMARKS: Half life in Sprague-Dawley rat at 5 to 10 mg/kg, po by LC-MS/MS analysis
# Type: ADME, organism-based
# MEASUREMENT CONDITIONS: in vivo, dose 5-10 mg/kg
READOUT NAME: half-life (h)
One number for each entry, in h.

Please report the recorded half-life for O=c1cc(-c2c(-n3cnnn3)ccc(Cl)c2F)cc2n1[C@H](c1ccc(-c3ccnc(CO)c3F)[nH]1)CC2 .
3.25
